# assay_target: D(2) dopamine receptor (Homo sapiens, UniProt P14416)
# Sequence (P14416 whole entry, canonical isoform): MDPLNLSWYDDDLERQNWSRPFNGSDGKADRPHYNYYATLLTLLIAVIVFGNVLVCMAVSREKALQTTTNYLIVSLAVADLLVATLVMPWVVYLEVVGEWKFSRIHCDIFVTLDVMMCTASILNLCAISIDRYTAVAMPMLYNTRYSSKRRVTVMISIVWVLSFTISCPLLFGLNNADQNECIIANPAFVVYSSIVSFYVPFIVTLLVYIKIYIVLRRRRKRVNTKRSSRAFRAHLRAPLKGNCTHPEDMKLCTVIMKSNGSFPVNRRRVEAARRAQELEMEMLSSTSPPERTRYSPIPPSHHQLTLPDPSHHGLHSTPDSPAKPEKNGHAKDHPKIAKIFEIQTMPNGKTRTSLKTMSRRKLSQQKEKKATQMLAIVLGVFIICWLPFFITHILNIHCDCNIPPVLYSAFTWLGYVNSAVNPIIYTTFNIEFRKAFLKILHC
# test_method_notes: Antagonist activity at human Dopamine receptor D2 isoform long expressed in HEK293 cells assessed as change in quinpirole-induced intracellular calcium response at 10 uM
# Assay type: functional, cell-based
# Set-up: scale not given: the % may be the effect or the level left
result_type: Activity (%)
Number only, in %; omit the unit.

QUERY: Bench note: what Activity did `O=c1c2ccccc2ncn1CCCCN1CCN(c2ccc(Cl)cc2)CC1` show?
RESULT: -44

QUERY: Bench note: what Activity did `O=C1c2ccccc2CN1CCCCN1CCN(c2ccc(Cl)cc2)CC1` show?
RESULT: -7

QUERY: Bench note: what Activity did `O=C1Cc2ccccc2N1CCCCN1CCN(c2cccc(C(F)(F)F)c2)CC1` show?
RESULT: -55

QUERY: Bench note: what Activity did `COc1ccccc1N1CCN(CCCCn2cnc3ccccc3c2=O)CC1` show?
RESULT: -58

====

# assay_target: D(2) dopamine receptor (Homo sapiens, UniProt P14416)
# test_method_notes: Antagonist activity at human Dopamine receptor D2 isoform long expressed in HEK293 cells assessed as change in quinpirole-induced intracellular calcium response at 10 uM
# Type: functional, cell-based
# Set-up: scale not given: the % may be the effect or the level left
Catalogue of compounds with associated Activity
Kindly format the answer as number then unit.

# count of solved cases: 4
[
  {
    "molecule_smiles": "O=c1c2ccccc2ncn1CCCCN1CCN(c2cccc(C(F)(F)F)c2)CC1",
    "Activity": "-38%"
  },
  {
    "molecule_smiles": "O=C1c2ccccc2S(=O)(=O)N1CCCCN1CCN(c2ccc(Cl)cc2)CC1",
    "Activity": "-24%"
  },
  {
    "molecule_smiles": "O=C1c2ccccc2CN1CCCCN1CCN(c2cccc(C(F)(F)F)c2)CC1",
    "Activity": "-53%"
  },
  {
    "molecule_smiles": "O=C1Cc2ccccc2N1CCCCN1CCN(c2ccc(Cl)cc2)CC1",
    "Activity": "-28%"
  }
]

Then there is this compound:
QUERY: What Activity appears in the records for this compound with D(2) dopamine receptor (Homo sapiens, UniProt P14416)? `O=C1c2ccccc2S(=O)(=O)N1CCCCN1CCN(c2cccc(C(F)(F)F)c2)CC1`
RESULT: -44%

====

Catalogue of molecules with associated Activity
# assay_target: D(1B) dopamine receptor (Homo sapiens, UniProt P21918)
# Sequence (P21918 whole entry): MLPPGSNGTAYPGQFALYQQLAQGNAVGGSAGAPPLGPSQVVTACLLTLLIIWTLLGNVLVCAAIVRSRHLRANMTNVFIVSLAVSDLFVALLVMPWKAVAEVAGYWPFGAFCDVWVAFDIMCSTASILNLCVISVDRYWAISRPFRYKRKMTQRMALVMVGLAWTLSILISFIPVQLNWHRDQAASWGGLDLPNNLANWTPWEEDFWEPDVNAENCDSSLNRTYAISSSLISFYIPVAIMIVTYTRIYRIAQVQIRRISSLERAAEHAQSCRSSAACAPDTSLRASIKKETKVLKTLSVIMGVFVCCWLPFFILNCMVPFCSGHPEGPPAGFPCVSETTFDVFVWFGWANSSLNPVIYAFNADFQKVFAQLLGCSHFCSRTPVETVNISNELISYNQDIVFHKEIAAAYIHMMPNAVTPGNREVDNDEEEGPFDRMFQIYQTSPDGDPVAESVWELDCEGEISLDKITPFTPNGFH
# test_method_notes: Displacement of [3H]SCH 23390 from human Dopamine D5 receptor expressed in HEK293 cells at 10 uM
# Assay type: cell-based
Number only, in %; omit the unit.

# count of solved cases: 4
[
  {
    "molecule_smiles": "O=C1c2ccccc2CN1CCCCN1CCN(c2ccc(Cl)cc2)CC1",
    "assay_target": "D(1B) dopamine receptor (Homo sapiens, UniProt P21918)",
    "Activity [%]": 100
  },
  {
    "molecule_smiles": "O=c1c2ccccc2ncn1CCCCN1CCN(c2cccc(C(F)(F)F)c2)CC1",
    "assay_target": "D(1B) dopamine receptor (Homo sapiens, UniProt P21918)",
    "Activity [%]": 76
  },
  {
    "molecule_smiles": "O=C1c2ccccc2CN1CCCCN1CCN(c2cccc(C(F)(F)F)c2)CC1",
    "assay_target": "D(1B) dopamine receptor (Homo sapiens, UniProt P21918)",
    "Activity [%]": 99
  },
  {
    "molecule_smiles": "O=C1Cc2ccccc2N1CCCCN1CCN(c2cccc(C(F)(F)F)c2)CC1",
    "assay_target": "D(1B) dopamine receptor (Homo sapiens, UniProt P21918)",
    "Activity [%]": 93
  }
]

Then there is this molecule:
QUERY: Bench note: what Activity did `O=C1Cc2ccccc2N1CCCCN1CCN(c2ccc(Cl)cc2)CC1` show?
RESULT: 93

====

# assay_target: D(1B) dopamine receptor (Homo sapiens)
# test_method_notes: Antagonist activity at human Dopamine D5 receptor in HEK293 cells assessed as change in SKF 38393-induced intracellular calcium response at 10 uM
# Format: functional, cell-based
# Parameters: scale not given: the % may be the effect or the level left
result_type: Activity (%)
Number only, in %; omit the unit.

# count of solved cases: 3
[
  {
    "molecule_smiles": "O=C1c2ccccc2S(=O)(=O)N1CCCCN1CCN(c2cccc(C(F)(F)F)c2)CC1",
    "Activity [%]": 8
  },
  {
    "molecule_smiles": "O=C1c2ccccc2CN1CCCCN1CCN(c2ccc(Cl)cc2)CC1",
    "Activity [%]": 21
  },
  {
    "molecule_smiles": "O=C1c2ccccc2S(=O)(=O)N1CCCCN1CCN(c2ccc(Cl)cc2)CC1",
    "Activity [%]": 4
  }
]

QUERY: What Activity appears in the records for this compound with D(1B) dopamine receptor (Homo sapiens)? `O=c1c2ccccc2ncn1CCCCN1CCN(c2cccc(C(F)(F)F)c2)CC1`
RESULT: 9

QUERY: What Activity appears in the records for this compound with D(1B) dopamine receptor (Homo sapiens)? `O=C1Cc2ccccc2N1CCCCN1CCN(c2ccc(Cl)cc2)CC1`
RESULT: 8

QUERY: What Activity appears in the records for this compound with D(1B) dopamine receptor (Homo sapiens)? `O=C1Cc2ccccc2N1CCCCN1CCN(c2cccc(C(F)(F)F)c2)CC1`
RESULT: 26

QUERY: What Activity appears in the records for this compound with D(1B) dopamine receptor (Homo sapiens)? `O=c1c2ccccc2ncn1CCCCN1CCN(c2ccc(Cl)cc2)CC1`
RESULT: 5

QUERY: What Activity appears in the records for this compound with D(1B) dopamine receptor (Homo sapiens)? `O=C1c2ccccc2CN1CCCCN1CCN(c2cccc(C(F)(F)F)c2)CC1`
RESULT: 41

====

# assay_target: D(2) dopamine receptor (Homo sapiens)
# test_method_notes: Displacement of [3H]Spiperone from human Dopamine receptor D2 isoform long expressed in HEK293 cells
# Format: cell-based
Catalogue of compounds with associated Ki
Number only, in nM; omit the unit.

# count of solved cases: 2
[
  {
    "molecule_smiles": "O=C1c2ccccc2S(=O)(=O)N1CCCCN1CCN(c2cccc(C(F)(F)F)c2)CC1",
    "assay_target": "D(2) dopamine receptor (Homo sapiens)",
    "unit_annotation": "nM",
    "Ki": 113
  },
  {
    "molecule_smiles": "O=C1c2ccccc2CN1CCCCN1CCN(c2ccc(Cl)cc2)CC1",
    "assay_target": "D(2) dopamine receptor (Homo sapiens)",
    "unit_annotation": "nM",
    "Ki": 760
  }
]

QUERY: Bench note: what Ki did `O=C1c2ccccc2CN1CCCCN1CCN(c2cccc(C(F)(F)F)c2)CC1` show?
RESULT: 387

QUERY: Bench note: what Ki did `O=c1c2ccccc2ncn1CCCCN1CCN(c2cccc(C(F)(F)F)c2)CC1` show?
RESULT: 73

QUERY: Bench note: what Ki did `O=C1c2ccccc2S(=O)(=O)N1CCCCN1CCN(c2ccc(Cl)cc2)CC1` show?
RESULT: 177

QUERY: Bench note: what Ki did `O=c1c2ccccc2ncn1CCCCN1CCN(c2ccc(Cl)cc2)CC1` show?
RESULT: 140

QUERY: Bench note: what Ki did `COc1ccccc1N1CCN(CCCCn2cnc3ccccc3c2=O)CC1` show?
RESULT: 184

QUERY: Bench note: what Ki did `O=C1Cc2ccccc2N1CCCCN1CCN(c2ccc(Cl)cc2)CC1` show?
RESULT: 1750

QUERY: Bench note: what Ki did `O=C1Cc2ccccc2N1CCCCN1CCN(c2cccc(C(F)(F)F)c2)CC1` show?
RESULT: 323

====

Catalogue of compounds with associated Activity
# assay_target: D(2) dopamine receptor (Homo sapiens, UniProt P14416)
# test_method_notes: Displacement of [3H]spiperone from human Dopamine receptor D2 isoform long expressed in HEK293 cells at 10 uM
# Assay type: cell-based
Number only, in %; omit the unit.

# count of solved cases: 2
[
  {
    "molecule_smiles": "O=C1c2ccccc2CN1CCCCN1CCN(c2ccc(Cl)cc2)CC1",
    "Activity / %": 105
  },
  {
    "molecule_smiles": "O=C1c2ccccc2S(=O)(=O)N1CCCCN1CCN(c2cccc(C(F)(F)F)c2)CC1",
    "Activity / %": 100
  }
]

QUERY: What Activity appears in the records for this compound with D(2) dopamine receptor (Homo sapiens, UniProt P14416)? `O=C1Cc2ccccc2N1CCCCN1CCN(c2cccc(C(F)(F)F)c2)CC1`
RESULT: 105

QUERY: What Activity appears in the records for this compound with D(2) dopamine receptor (Homo sapiens, UniProt P14416)? `O=C1c2ccccc2S(=O)(=O)N1CCCCN1CCN(c2ccc(Cl)cc2)CC1`
RESULT: 99

QUERY: What Activity appears in the records for this compound with D(2) dopamine receptor (Homo sapiens, UniProt P14416)? `O=C1Cc2ccccc2N1CCCCN1CCN(c2ccc(Cl)cc2)CC1`
RESULT: 106

QUERY: What Activity appears in the records for this compound with D(2) dopamine receptor (Homo sapiens, UniProt P14416)? `COc1ccccc1N1CCN(CCCCn2cnc3ccccc3c2=O)CC1`
RESULT: 105

QUERY: What Activity appears in the records for this compound with D(2) dopamine receptor (Homo sapiens, UniProt P14416)? `O=c1c2ccccc2ncn1CCCCN1CCN(c2ccc(Cl)cc2)CC1`
RESULT: 100

QUERY: What Activity appears in the records for this compound with D(2) dopamine receptor (Homo sapiens, UniProt P14416)? `O=c1c2ccccc2ncn1CCCCN1CCN(c2cccc(C(F)(F)F)c2)CC1`
RESULT: 107

QUERY: What Activity appears in the records for this compound with D(2) dopamine receptor (Homo sapiens, UniProt P14416)? `O=C1c2ccccc2CN1CCCCN1CCN(c2cccc(C(F)(F)F)c2)CC1`
RESULT: 106
